Listed below: pEC50 values for each entry.
tgt: AMPK
assayName: AMPK activation, enzyme-linked immunosorbent assay
Format: biochemical
conditionContext: Table 14, compounds of Table 7
pEC50: −log10 of the molar value.

Use these answered entries as a reference point.
CS(=O)(=O)c1ccc(OC2CCN(C(=O)c3ccc(C(=O)NC4CCN(Cc5ccc(OC(F)(F)F)cc5)C[C@H]4F)cn3)CC2)cc1 (stereo partly shown) : 5.00 to 6.00
Cc1cc(OC2CCN(C(=O)c3ccc(C(=O)NC4CCN(Cc5ccc(OC(F)(F)F)cc5)C[C@H]4F)cn3)CC2)ccc1S(C)(=O)=O (stereo partly shown) : > 6.00

Field pEC50 (entry COCCN(C(=O)c1ccc(C(=O)N2CCC(C(=O)c3ccc(OC)cc3)CC2)nc1)C1CCN(Cc2ccc(OC(F)(F)F)cc2)CC1 ) reads > 6.00

---

Attribute: pEC50
tgt: AMPK
assayName: AMPK activation, enzyme-linked immunosorbent assay
Type: biochemical
conditionContext: Table 8, compounds of Table 1
pEC50: −log10 of the molar value.

Solved cases (2 shown):
O=C(NC1CCN(Cc2ccccn2)CC1)c1cc2ccc(OC3CCN(c4ccc(C(F)(F)F)cc4)CC3)cc2o1 : 6.30 to 7.00
CC(C)(C)OC(=O)N1CCC(NC(=O)c2ccc(OC3CCN(c4ccc(C(F)(F)F)cc4)CC3)nc2)CC1 : 6.30 to 7.00

Read the next record carefully.
pEC50 reported for this molecule Cc1c(C(=O)NC2CCN(Cc3ccccc3C#N)CC2)oc2cc(OC3CCN(c4ccc(C(F)(F)F)cc4)CC3)ccc12 : > 7.00

---

Property: pEC50; scope: individual compounds
tgt: AMPK
assayName: AMPK activation, enzyme-linked immunosorbent assay
Format: biochemical
conditionContext: Table 13, compounds of Table 6
pEC50: −log10 of the molar value.

CS(=O)(=O)c1ccc(OC2CCN(C(=O)c3ccc4oc(C(=O)N[C@@H]5CCN(Cc6ccc(OC(F)(F)F)cc6)C[C@H]5F)cc4c3)CC2)cc1 : > 7.00
CS(=O)(=O)c1ccc(CN2CCN(C(=O)c3ccc4oc(C(=O)NC5CCN(Cc6ccc(C#N)cc6)CC5)cc4c3)CC2)cc1Cl : > 7.00
N#Cc1ccc(CN2CCC(NC(=O)c3cc4cc(NC(=O)c5ccc(-c6nnc[nH]6)cc5)ccc4o3)CC2)cc1 : 5.00 to 6.00

// pEC50 (AMPK) for O=C(Nc1ccc(Oc2ccc(F)cc2)nc1)c1cc2cc(CN3CCC(Oc4ccc(C(F)(F)F)cc4)CC3)ccc2o1 = > 7.00

Known value: AMPK pEC50 of the compound COc1ccc(CN2CCC(NC(=O)c3cc4cc(C(=O)N5CCN(Cc6ccc(S(=O)(=O)C(F)(F)F)cc6)CC5)ccc4o3)CC2)cc1F equals > 7.00

Per the reported AMPK data, COc1ccc(CN2CCC(NC(=O)c3cc4ccc(C(=O)N5CCN(Cc6ccc(S(C)(=O)=O)cc6)CC5)cc4o3)CC2)cc1F has pEC50 of > 7.00

With AMPK as the test system, N#Cc1ccc(CN2CCC(NC(=O)c3cc4cc(C(=O)N5CCN(Cc6ccc(F)cc6)CC5)ccc4o3)CC2)cc1 showed pEC50 of > 7.00

pEC50 on AMPK for N#Cc1ccc(CN2CCC(NC(=O)c3cc4cc(NC(=O)C5CN(c6ccc(C#N)cc6)C5)ccc4o3)CC2)cc1 is 6.00 to 7.00

Bench note, AMPK: entry N#Cc1ccc(CN2CCC(NC(=O)c3cc4cc(NC(=O)C5CCN(Cc6ccc(OC(F)(F)F)cc6)CC5)ccc4o3)CC2)cc1 , its pEC50 = 6.00 to 7.00

Values compiled from patent US9409884B2.
